Test system: wheat (Triticum aestivum)
Assay: Test B pre/postemergence
Assay type: in vivo
Settings: Triticum aestivum, pre-emergence, Preemergence, 125 g ai/ha; scale 0 to 100 (0 no effect, 100 complete control); read-out: Plant response rating, Wheat
Method: […] At the same time, plants selected from these crop and weed species and also blackgrass (Alopecurus myosuroides) and wild oat (Avena fatua) were treated with postemergence applications of test chemicals formulated in the same manner. […] Treated plants and controls were maintained in a greenhouse for 13 to 15 days, after which time all species were compared to controls and visually evaluated. […]
Respond with T for plant injury at 125 g/ha values of 30% and above, F for values below.

>>> class_label("Nc1nc(C2CC2)nc(C(=O)OCc2ccccc2)c1Cl")
"T"
>>> class_label("CNc1nc(C2CC2)nc(C(=O)OC)c1Cl")
"T"
>>> class_label("COC(=O)c1nc(C2CC2)nc(NO)c1Br")
"F"
>>> class_label("COC(=O)c1nc(C2CC2)nc(N)c1Cl")
"T"
>>> class_label("COC(=O)c1nc(-c2ccccc2)nc(N)c1Br")
"F"
>>> class_label("Nc1nc(C2CC2)nc(C(=O)O)c1Br")
"T"
>>> class_label("COC(=O)c1nc(C(C)C)nc(N)c1Br")
"F"
>>> class_label("CCOC(=O)c1nc(C2CC2)nc(NN)c1Br")
"F"

###

Test system: velvetleaf (Abutilon theophrasti)
Test: Test C pre/postemergence
Format: in vivo
Conditions: Abutilon theophrasti, pre-emergence, Preemergence, 125 g ai/ha; scale 0 to 100; read-out: Plant response rating, Velvetleaf
Metric: pest or weed control at 125 g/ha (%)

>>> observed_result("CCOC(=O)c1nc(C2CC2)nc(N)c1F")
15
>>> observed_result("COC(=O)c1nc(C2CC2)nc(N)c1Cl")
100
>>> observed_result("COC(=O)c1nc(C(C)C)nc(N)c1Br")
20
>>> observed_result("Nc1nc(C2CC2)nc(C=O)c1Br")
10

###

Test system: woolly cupgrass (Eriochloa villosa)
Experiment: Test C pre/postemergence
Format: in vivo
Conditions: Eriochloa villosa, pre-emergence; Preemergence, 62 g ai/ha; scale 0 to 100, 0 no effect, 100 complete control; read-out: Plant response rating, Cupgrass, Woolly
Reported pest or weed control at 62 g/ha values for a set of compounds
Metric: pest or weed control at 62 g/ha (%)

>>> observed_result("Nc1nc(C2CC2)nc(C=O)c1Br")
0
>>> observed_result("CCOC(=O)c1nc(C2CC2)nc(N)c1Cl")
0
>>> observed_result("COC(=O)c1nc(C(C)C)nc(N)c1Br")
0
>>> observed_result("CNc1nc(C2CC2)nc(C(=O)OC)c1Br")
0
>>> observed_result("Nc1nc(C2CC2)nc(C(=O)OCc2ccccc2)c1Cl")
0
>>> observed_result("COC(=O)c1nc(C2CC2)nc(N)c1Cl")
90

###

System: umbrella sedge (Cyperus difformis)
Test: Test B flooded paddy test
Format: in vivo
Settings: Flood, 125 g ai/ha; scale 0 to 100
Metric: Plant response rating, Sedge, Umbrella

>>> observed_result("Nc1nc(-c2ccc(Cl)cc2)nc(C(=O)O)c1Br")
60
>>> observed_result("COC(=O)c1nc(-c2ccc(Cl)cc2)nc(N)c1Br")
90
>>> observed_result("Nc1nc(C2CC2)nc(C(=O)[O-])c1Cl.[Na+]")
0
>>> observed_result("Nc1nc(C2CC2)nc(C(=O)OCc2ccc(Cl)cc2)c1Cl")
20
>>> observed_result("Nc1nc(-c2ccc(Br)cc2)nc(C(=O)O)c1Br")
90
